The next entries give measured pIC50 for Cytochrome P450 3A4 (Homo sapiens, UniProt P08684).
pIC50: −log10 of the molar value.
Measure name: pIC50

C[C@H](C1=C(CCN(C)Cc2ccccn2)Cc2ccccc21)c1cnccn1 :: 5.32

1. C[C@H](C1=C(CCN(C)Cc2cccs2)Cc2ccccc21)c1cnccn1
2. C[C@H](C1=C(CCN(C)Cc2ncc[nH]2)Cc2ccccc21)c1cnccn1
Kindly identify which of 1 and 2 has the larger recorded pIC50 value. Refer to your chosen entry by its label in the reply. 1
(1: 5.74, 2: 5.35)

###

Experimental details: Ratio of drug level in brain to plasma in rat at 1 mg/kg, iv after 4 hrs
Format: ADME, organism-based
Set-up: dose 1 mg/kg, route intravenous
Setup conditions: read-out: BPR
Measure name: Kp at 4 h
// keep it numeric: no unit symbol after the value

State its Kp at 4 h for this molecule: FC1CCN(CCC2=C(Cc3cnccn3)c3ccccc3C2)C1 (stereo unspecified) 3.9
